- ASSAY_CONDITIONS: H-Lin-PC bulk; FIG. 6
OBSERVATION_TYPE: relative strength of protection of H-Lin-PC bulk: % in bilayer

1. [2H]C([2H])(/C=C\CCCCC)/C=C\C([2H])([2H])/C=C\C([2H])([2H])/C=C\CCCC(=O)O[C@H](COC(=O)CCCCCCCCCCCCCCCCC)COP(=O)([O-])OCC[N+](C)(C)C	12%
2. [2H]C([2H])(/C=C\CCCCC)/C=C\CCCCCCCC(=O)O[C@H](COC(=O)CCCCCCCCCCCCCCCCC)COP(=O)([O-])OCC[N+](C)(C)C [D2-Lin-PC]	25%
3. [2H]C([2H])(/C=C\CC)/C=C\C([2H])([2H])/C=C\CCCCCCCC(=O)O[C@H](COC(=O)CCCCCCCCCCCCCCCCC)COP(=O)([O-])OCC[N+](C)(C)C	17%
4. [2H]C([2H])(/C=C\CC)/C=C\C([2H])([2H])/C=C\C([2H])([2H])/C=C\C([2H])([2H])/C=C\CCCC(=O)O[C@@H](COC(=O)CCCCCCCCCCCCCCCCC)COP(=O)([O-])OCC[N+](C)(C)C	10%
